Molecular target: F protein of wild type RSV A/Long (respiratory syncytial virus strain …, UniProt P12568 26-574)
Sequence (P12568 26-574): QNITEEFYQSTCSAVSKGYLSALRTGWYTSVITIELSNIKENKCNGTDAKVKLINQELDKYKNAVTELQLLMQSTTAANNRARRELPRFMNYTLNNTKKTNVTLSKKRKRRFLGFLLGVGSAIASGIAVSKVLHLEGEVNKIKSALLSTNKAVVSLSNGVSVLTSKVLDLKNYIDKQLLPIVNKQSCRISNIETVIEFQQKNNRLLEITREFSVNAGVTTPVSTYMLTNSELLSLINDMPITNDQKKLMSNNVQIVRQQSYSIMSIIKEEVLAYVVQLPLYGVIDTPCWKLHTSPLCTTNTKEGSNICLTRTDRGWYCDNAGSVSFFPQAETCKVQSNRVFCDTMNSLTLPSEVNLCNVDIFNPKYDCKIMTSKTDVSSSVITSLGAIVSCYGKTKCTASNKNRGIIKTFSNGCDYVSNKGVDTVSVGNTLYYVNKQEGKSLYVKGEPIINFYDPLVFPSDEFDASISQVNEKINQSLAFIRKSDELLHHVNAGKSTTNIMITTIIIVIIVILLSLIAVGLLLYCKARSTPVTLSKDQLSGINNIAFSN
Test: cell-based or functional assay
Can you tell me EC50 (nM), in vitro microneutralization of RSV Long for the items I'm about to list?
The reply should be a number in nM, with the unit left off.

Problem: I am curious: what EC50 (nM), in vitro microneutralization of RSV Long value has been reported for A13a11 (Fab fragment) (Fab, V domains shown, Fab) VH: QVTLRESGPALVKPTQTLTLTCTFSGFSLSTAGMSVGWIRQPPGKALEWLADIWWDDKKHYNPSLKDRLTISKDTSKNQVVLKVTNMDPADTATYYCARDMIFNWYFDVWGAGTTVTVSS VL: DIQMTQSPSTLSASVGDRVTITCSASSSVGYMHWYQQKPGKAPKLLIYDTYRHASGVPSRFSGSGSGTEFTLTISSLQPDDFATYYCFQGSGYPFTFGGGTKLEIK ?
Result: 2.04

Problem: Same again, this time with A13c4 (Fab fragment) (Fab, V domains shown, Fab) VH: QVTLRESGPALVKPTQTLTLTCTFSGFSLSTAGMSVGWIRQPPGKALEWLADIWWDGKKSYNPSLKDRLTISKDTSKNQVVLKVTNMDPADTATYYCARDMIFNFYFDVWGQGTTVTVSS VL: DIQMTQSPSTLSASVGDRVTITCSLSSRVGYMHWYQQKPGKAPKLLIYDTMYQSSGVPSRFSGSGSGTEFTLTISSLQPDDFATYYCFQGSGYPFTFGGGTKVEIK
Result: 0.52

Problem: Same again, this time with P12f2 (Fab fragment) (Fab, V domains shown, Fab) VH: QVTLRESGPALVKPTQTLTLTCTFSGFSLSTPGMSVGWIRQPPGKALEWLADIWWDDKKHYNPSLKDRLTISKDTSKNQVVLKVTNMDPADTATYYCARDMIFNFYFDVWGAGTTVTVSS VL: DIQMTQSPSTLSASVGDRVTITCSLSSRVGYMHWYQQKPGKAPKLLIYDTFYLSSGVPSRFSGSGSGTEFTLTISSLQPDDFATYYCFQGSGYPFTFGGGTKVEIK
Result: 0.65

Problem: Same again, this time with A12a6 (Fab fragment) (Fab, V domains shown, Fab) VH: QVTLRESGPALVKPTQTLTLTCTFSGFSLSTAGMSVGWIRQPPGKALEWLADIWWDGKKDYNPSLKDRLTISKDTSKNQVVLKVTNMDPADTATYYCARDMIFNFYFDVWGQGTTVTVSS VL: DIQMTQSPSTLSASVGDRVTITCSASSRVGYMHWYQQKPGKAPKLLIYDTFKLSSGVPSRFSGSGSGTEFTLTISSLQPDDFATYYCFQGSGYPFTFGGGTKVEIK
Result: 0.62
